# Test system: promastigote forms of Leishmania amazonensis (WHOM/BR/75/JOSEFA strain)
# experiment-description: Antiproliferative assay (XTT), promastigote forms, 72 h
# Type: cell-based
# particulars: Leishmania amazonensis; promastigote form, 72 h, XTT; read-out: L. amazonensis IC50
reported-endpoint: IC50 (µM)

{"smiles-text": "O=C(N/N=C/c1ccccn1)c1noc(-c2ccc(F)cc2)c1CNc1ccccc1", "reported-endpoint": "IC50", "recorded-value": 74.8}
{"smiles-text": "NNC(=O)c1noc(-c2ccc([N+](=O)[O-])cc2)c1CNc1ccccc1", "reported-endpoint": "IC50", "recorded-value": 42.1}
{"smiles-text": "COc1ccc(NCc2c(C(=O)N/N=C/c3ccccc3)noc2-c2ccc(Cl)cc2)cc1", "reported-endpoint": "IC50", "recorded-value": 54.3}
{"smiles-text": "COc1ccc(NCc2c(C(=O)NN)noc2-c2ccc(Cl)cc2)cc1", "reported-endpoint": "IC50", "recorded-value": 55.8}
{"smiles-text": "O=C(N/N=C/c1ccccn1)c1noc(-c2ccc([N+](=O)[O-])cc2)c1CNc1ccc(Cl)cc1", "reported-endpoint": "IC50", "recorded-value": 26}
{"smiles-text": "COc1ccc(NCc2c(C(=O)N/N=C/c3ccccn3)noc2-c2ccccc2)cc1", "reported-endpoint": "IC50", "recorded-value": 17.9}
{"smiles-text": "COc1ccc(NCc2c(C(=O)N/N=C/c3ccccc3)noc2-c2ccc(F)cc2)cc1", "reported-endpoint": "IC50", "recorded-value": 56.3}
{"smiles-text": "O=C(N/N=C/c1ccc(-c2cccs2)s1)c1noc(-c2ccccc2)c1CNc1ccc(Cl)cc1", "reported-endpoint": "IC50", "recorded-value": 18.4}
{"smiles-text": "COc1ccc(NCc2c(C(=O)NN)noc2-c2ccc([N+](=O)[O-])cc2)cc1", "reported-endpoint": "IC50", "recorded-value": 76.7}
{"smiles-text": "COc1ccc(NCc2c(C(=O)N/N=C/c3ccccn3)noc2-c2ccc(F)cc2)cc1", "reported-endpoint": "IC50", "recorded-value": 18}
{"smiles-text": "COc1ccc(NCc2c(C(=O)N/N=C/c3ccc(-c4cccs4)s3)noc2-c2ccc([N+](=O)[O-])cc2)cc1", "reported-endpoint": "IC50", "recorded-value": 48.9}
{"smiles-text": "NNC(=O)c1noc(-c2ccc(F)cc2)c1CNc1ccccc1", "reported-endpoint": "IC50", "recorded-value": 20.3}
{"smiles-text": "COc1ccc(NCc2c(C(=O)N/N=C/c3ccccn3)noc2-c2ccc(Cl)cc2)cc1", "reported-endpoint": "IC50", "recorded-value": 17.4}
